Measured pKi on memapsin 2 (Homo sapiens, UniProt P56817) follows.
Sequence (P56817 46-501): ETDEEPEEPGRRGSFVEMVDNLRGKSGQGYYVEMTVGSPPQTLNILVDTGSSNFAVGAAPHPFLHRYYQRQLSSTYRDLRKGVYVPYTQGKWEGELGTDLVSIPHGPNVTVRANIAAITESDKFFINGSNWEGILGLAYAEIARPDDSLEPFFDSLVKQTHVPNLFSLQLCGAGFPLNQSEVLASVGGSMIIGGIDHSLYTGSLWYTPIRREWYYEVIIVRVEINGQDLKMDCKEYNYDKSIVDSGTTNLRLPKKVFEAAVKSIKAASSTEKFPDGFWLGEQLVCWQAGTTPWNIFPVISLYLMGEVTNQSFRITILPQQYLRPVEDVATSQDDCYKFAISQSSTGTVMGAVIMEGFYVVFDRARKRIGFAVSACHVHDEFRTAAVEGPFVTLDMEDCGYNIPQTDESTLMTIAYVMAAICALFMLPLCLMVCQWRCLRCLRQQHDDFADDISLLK
pKi: −log10 of the molar value.

Reported pKi for Cc1csc(C[C@H](C)C(=O)N[C@@H](CNC(=O)OC(C)(C)C)C(=O)N[C@@H](CC(C)C)[C@@H](O)C[C@@H](C)C(=O)N[C@H](CS(=O)(=O)CC(C)C)C(C)C)n1 : what is it? < 6.22

// next record Cc1csc(CNC(=O)C[C@@H](NC(=O)OC(C)(C)C)C(=O)N[C@@H](CC(C)C)[C@@H](O)C[C@@H](C)C(=O)N[C@H](C(=O)NCC(C)C)C(C)C)n1 > 7.00

One more molecule: CC[C@H](C[C@H](O)[C@H](CC(C)C)NC(=O)[C@H](CNC(=O)OC(C)(C)C)NC(=O)[C@@H](C)Cc1nc(C)cs1)C(=O)N[C@H](C(=O)NCC(C)C)C(C)C > 7.00

Same question, Cc1cc(C)n(CCC(=O)N[C@@H](CC(N)=O)C(=O)N[C@@H](CC(C)C)[C@@H](O)C[C@@H](C)C(=O)N[C@H](C(=O)NCC(C)C)C(C)C)n1 this time 6.22 to 7.00

Consider next the molecule Cc1csc(C[C@H](C)C(=O)N[C@@H](CNC(=O)O[C@@H]2CCOC2)C(=O)N[C@@H](CC(C)C)[C@@H](O)C[C@@H](C)C(=O)N[C@H](C(=O)NCC(C)C)C(C)C)n1 in the same way. > 7.00

Another molecule: CC[C@@H](Cc1nc(C)cs1)C(=O)N[C@@H](CN(C)OC)C(=O)N[C@@H](CC(C)C)[C@@H](O)C[C@@H](C)C(=O)N[C@H](C(=O)NCC(C)C)C(C)C 6.22 to 7.00

----------
pKi: −log10 of the molar value.
Each entry below carries its measured pKi, system: memapsin 2 (Homo sapiens).

Sample records with pKi:
compound=CC(=O)NC[C@H](NC(=O)OCc1nc(C)cs1)C(=O)N[C@@H](CC(C)C)[C@@H](O)C[C@@H](C)C(=O)N[C@H](C(=O)NCC(C)C)C(C)C observed_result="6.22 to 7.00"
compound=Cc1cc(C)n(C[C@H](C)C(=O)N[C@@H](CNC(=O)O[C@H]2CCOC2)C(=O)N[C@@H](CC(C)C)[C@@H](O)C[C@@H](C)C(=O)N[C@H](C(=O)NCC(C)C)C(C)C)n1 observed_result="> 7.00"
compound=Cc1csc(C[C@H](C)C(=O)N[C@@H](CNC(=O)OC(C)(C)C)C(=O)N[C@@H](CC(C)C)[C@@H](O)C[C@@H](C)C(=O)N[C@H](C(=O)NCc2ccncc2)C(C)C)n1 observed_result="> 7.00"
compound=CC[C@@H](Cn1nc(C)cc1C)C(=O)N[C@@H](CNC(=O)OC(C)(C)C)C(=O)N[C@@H](CC(C)C)[C@@H](O)C[C@@H](C)C(=O)N[C@H](C(=O)NCc1ccccn1)C(C)C observed_result="> 7.00"
compound=Cc1cc(C)n(CCC(=O)N[C@@H](CC(=O)O)C(=O)N[C@@H](CC(C)C)[C@@H](O)C[C@@H](C)C(=O)N[C@H](C(=O)NCC(C)C)C(C)C)n1 observed_result="6.22 to 7.00"

What does the record list as pKi for Cc1nc(COC(=O)N[C@@H](CC(=O)OCc2ccccc2)C(=O)N[C@@H](CC(C)C)[C@@H](O)C[C@@H](C)C(=O)N[C@H](C(=O)NCC(C)C)C(C)C)c(C)o1 ? > 7.00

Record: CCNC(=O)C[C@H](NC(=O)[C@@H](C)Cc1nc(C)cs1)C(=O)N[C@@H](CC(C)C)[C@@H](O)C[C@@H](C)C(=O)N[C@H](C(=O)NCC(C)C)C(C)C > 7.00

Another molecule to look at: COc1ccc(C[C@H](NC(=O)[C@H](CNC(=O)OC(C)(C)C)NC(=O)[C@@H](C)Cc2nc(C)cs2)[C@@H](O)C[C@@H](C)C(=O)N[C@H](C(=O)NCC(C)C)C(C)C)cc1 < 6.22

Try the molecule Cc1nc(COC(=O)N[C@@H](CC(=O)NCc2ccncc2)C(=O)N[C@@H](CC(C)C)[C@@H](O)C[C@@H](C)C(=O)N[C@H](C(=O)NCC(C)C)C(C)C)c(C)o1 6.22 to 7.00

Where these numbers come from: patent US7659289B2
